# system_under_test: CDK5/p35 (Homo sapiens, UniProt Q00535)
# Sequence (Q00535 whole entry): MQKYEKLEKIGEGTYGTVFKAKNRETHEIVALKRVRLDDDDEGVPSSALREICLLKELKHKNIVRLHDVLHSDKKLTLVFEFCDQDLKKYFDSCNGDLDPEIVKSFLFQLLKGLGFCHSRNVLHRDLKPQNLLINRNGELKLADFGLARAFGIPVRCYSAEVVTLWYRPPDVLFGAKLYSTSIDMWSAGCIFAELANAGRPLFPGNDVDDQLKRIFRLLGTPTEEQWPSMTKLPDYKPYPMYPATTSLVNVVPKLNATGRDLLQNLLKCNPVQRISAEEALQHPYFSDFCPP
# Sequence (Q15078 whole entry partner): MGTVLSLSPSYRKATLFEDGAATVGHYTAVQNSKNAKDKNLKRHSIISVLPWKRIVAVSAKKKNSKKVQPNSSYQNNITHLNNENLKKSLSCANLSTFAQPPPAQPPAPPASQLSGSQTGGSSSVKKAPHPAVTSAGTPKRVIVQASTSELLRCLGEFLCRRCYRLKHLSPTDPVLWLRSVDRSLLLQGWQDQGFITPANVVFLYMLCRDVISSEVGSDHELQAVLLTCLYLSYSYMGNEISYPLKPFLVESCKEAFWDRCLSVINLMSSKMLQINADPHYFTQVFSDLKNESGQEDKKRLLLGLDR
# assay_text: Kinase inhibition assay, recombinant kinase, [γ-33P]ATP
# experimental_setup: Table 12; read-out: IC50, CDK5/p25NCK
parameter_measured: IC50 (µM)
Reply numerically in µM, unit not repeated.

IN: I would be grateful if you could share the reported IC50 for NC1CCC(Nc2nc(NCc3ccc(-c4ccco4)nc3)c3ncn(C4CCCC4)c3n2)CC1 (stereo not shown) .
OUT: 0.015

###

# System: caspase-3/7 activity in PLC/PRF/5 cell line
# assay_text: One-step cellular caspase-3/7 activity assay
# Type: cell-based, human
# experimental_setup: compound concentration 160 nM; 24 hours incubation; relative to 0 nM = 1.00
parameter_measured: Relative caspase-3/7 activity in PLC/PRF/5 cell line
I'd appreciate a reply containing only the number, no unit.

molecule	system_under_test	observed_value
NC1CCC(Nc2nc(NCc3ccc(-c4cccs4)cc3)c3ncn(C4CCCC4)c3n2)CC1 (centres unmarked)	caspase-3/7 activity in PLC/PRF/5 cell line	1.30
NC1CCC(Nc2nc(NCc3ccc(-c4ccccc4O)cc3)c3ncn(C4CCCC4)c3n2)CC1 (centres unmarked)	caspase-3/7 activity in PLC/PRF/5 cell line	1.08
Nc1ccccc1-c1ccc(CNc2nc(NC3CCC(N)CC3)nc3c2ncn3C2CCCC2)cc1 (centres unmarked)	caspase-3/7 activity in PLC/PRF/5 cell line	0.69

IN: Which measured Relative caspase-3/7 activity in PLC/PRF/5 cell line value corresponds to NC1CCC(Nc2nc(NCc3ccc(-c4cccc(F)c4)cc3)c3ncn(C4CCCC4)c3n2)CC1 (centres unmarked) ?
OUT: 3.10

IN: Do the same for OC1CCC(Nc2nc(NCc3ccc(-c4ccco4)nc3)c3ncn(C4CCCC4)c3n2)CC1 (centres unmarked) please
OUT: 2.19

IN: Same question, NC1CCC(Nc2nc(NCc3ccc(-c4ccsc4)nc3)c3ncn(C4CCCC4)c3n2)CC1 (centres unmarked) this time
OUT: 2.97

IN: Subsequent entry: NC1CCC(Nc2nc(NCc3ccc(-c4ccoc4)cc3)c3ncn(C4CCCC4)c3n2)CC1 (centres unmarked)
OUT: 1.72

###

# Tested on: caspase-3/7 activity in Hep3B cell line
# assay_text: One-step cellular caspase-3/7 activity assay
# Type: cell-based, human
# experimental_setup: 100 nM, 24 hours; 0 nM = 1.00
Relative caspase-3/7 activity in Hep3B cell line for assorted compounds
Could you keep your reply to the number by itself?

Consider the worked cases shown below.
compound	observed_value
NC1CCC(Nc2nc(NCc3ccc(-c4cccs4)nc3)c3ncn(C4CCCC4)c3n2)CC1 (stereo not drawn) [BP30]	2.99
NC1CCC(Nc2nc(NCc3ccc(-n4cccn4)cc3)c3ncn(C4CCCC4)c3n2)CC1 (stereo not drawn) [BP24]	1.98
NC1CCC(Nc2nc(NCc3ccc(-c4ccoc4)nc3)c3ncn(C4CCCC4)c3n2)CC1 (stereo not drawn) [BP36]	2.67

IN: Relative caspase-3/7 activity in Hep3B cell line lookup needed for NC1CCC(Nc2nc(NCc3ccc(-c4ccco4)nc3)c3ncn(C4CCCC4)c3n2)CC1 (stereo not drawn) [BP14] , thanks.
OUT: 0.99

IN: Same question, NC1CCC(Nc2nc(NCc3ccc(-c4cccc(F)c4)nc3)c3ncn(C4CCCC4)c3n2)CC1 (stereo not drawn) [BP19] this time
OUT: 0.90

IN: NC1CCC(Nc2nc(NCc3ccc(-c4ccccc4O)nc3)c3ncn(C4CCCC4)c3n2)CC1 (stereo not drawn) [BP20] ?
OUT: 4.42
